Please go through the items and note down their speed of sound.
- run-conditions: 328.15 K; 101.33 kPa; Liquid; Sing-around technique in a fixed-path interferometer
Quick note: give the figure in m/s, leave out the unit.

Task item: Return speed of sound for the following molecule: COS(=O)(=O)[O-].C[n+]1ccccc1 [1-methylpyridinium methylsulfate]
Reply: 1806.5

Task item: In one line, give reported speed of sound of the entry CCc1cccc[n+]1C.COS(=O)(=O)[O-] [2-ethyl-1-methylpyridinium methyl sulfate] .
Reply: 1783

Task item: Identify measured speed of sound associated with CCOS(=O)(=O)[O-].CCc1cccc[n+]1CC [1,2-diethylpyridinium ethylsulfate]
Reply: 1668.1

Task item: For the molecule COS(=O)(=O)[O-].Cc1ccc[n+](C)c1 [1,3-dimethylpyridinium methyl sulfate] , give its reported speed of sound.
Reply: 1750
